test: Blood clearance in iv dosed rat; type: ADME, organism-based; conditions: whole blood
Measurement Label: clearance
Remember to follow the number with its unit.

Task: // lookup clearance for N=C(N)c1ccc2[nH]c(-c3cc(Cl)cc(Cl)c3)cc2c1
Result: 8.5 mL/min/kg

---

Below: a set of entries, each annotated with reported inhibition.
biological target: Acid-sensing ion channel 3 (Homo sapiens); experiment: Inhibition of ASIC3 at 1 uM by patch-clamp electrophysiology assay relative to baseline peak current
# output: bare number, implied unit %

N=C(N)c1ccc2[nH]c(-c3cc(Cl)cc(-c4ccccc4)c3)cc2c1    94
N=C(N)c1ccc(-c2cc3ccc(C(=N)N)cc3[nH]2)cc1    33
N=C(N)c1ccc2[nH]c(-c3cc(Cl)cc(Cl)c3)cc2c1    92
N=C(N)c1ccc2cc(-c3ccccc3)[nH]c2c1    18
N=C(N)c1ccc2[nH]c(-c3cc(F)cc(Cl)c3)cc2c1    82
N=C(N)c1ccc2[nH]c(-c3cc(Cl)cc(Cl)c3Cl)cc2c1    91
N=C(N)c1ccc2[nH]c(-c3cc(F)cc(Br)c3)cc2c1    93
N=C(N)c1ccc2[nH]c(-c3cc(Cl)nc(Cl)c3)cc2c1    84

# evaluate next
Task: // lookup inhibition for Cn1c(-c2ccc(C(=N)N)cc2)cc2cc(C(=N)N)ccc21
Result: 14

---

assay: Plasma clearance in iv dosed rat; assay type: ADME, organism-based
Measurement Label: clearance (mL/min/kg)
# output: bare number, implied unit mL/min/kg

Task: // lookup clearance for N=C(N)c1ccc2[nH]c(-c3cc(Cl)cc(Cl)c3)cc2c1
Result: 8.5

---

test: Half life in iv dosed rat blood; type: ADME, organism-based; settings: whole blood
Measurement Label: half-life
Remember to follow the number with its unit.

Task: // lookup half-life for N=C(N)c1ccc2[nH]c(-c3cc(Cl)cc(Cl)c3)cc2c1
Result: 4.4 h

---

Below: a set of entries, each annotated with reported inhibition.
Molecular target: Acid-sensing ion channel 3 (Homo sapiens)
Sequence (whole entry): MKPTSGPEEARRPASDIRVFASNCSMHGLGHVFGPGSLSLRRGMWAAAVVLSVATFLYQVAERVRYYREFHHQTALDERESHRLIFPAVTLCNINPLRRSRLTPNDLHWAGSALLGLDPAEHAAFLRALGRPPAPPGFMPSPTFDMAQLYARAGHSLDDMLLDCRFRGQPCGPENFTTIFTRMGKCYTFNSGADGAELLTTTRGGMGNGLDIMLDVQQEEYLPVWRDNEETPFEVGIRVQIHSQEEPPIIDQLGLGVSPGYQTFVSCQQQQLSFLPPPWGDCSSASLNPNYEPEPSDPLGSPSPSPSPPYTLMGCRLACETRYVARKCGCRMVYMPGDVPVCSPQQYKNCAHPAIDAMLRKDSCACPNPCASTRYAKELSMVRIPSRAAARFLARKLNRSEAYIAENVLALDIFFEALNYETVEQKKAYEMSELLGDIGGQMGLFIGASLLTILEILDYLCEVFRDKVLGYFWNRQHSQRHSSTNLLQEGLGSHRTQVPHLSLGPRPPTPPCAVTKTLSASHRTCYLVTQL
Assay: Inhibition of ASIC3 at 10 uM by patch-clamp electrophysiology assay relative to baseline peak current
# output: bare number, implied unit %

COc1cc(F)cc(-c2cc3cc(C(=N)N)ccc3[nH]2)c1    98
N=C(N)c1ccc2[nH]c(-c3cc(Cl)cc(Cl)c3)cc2c1    98
N=C(N)c1ccc2[nH]c(-c3ccccc3)cc2c1    88

Task: // lookup inhibition for N=C(N)c1ccc2[nH]c(-c3cc(F)cc(Br)c3)cc2c1
Result: 96

Task: // lookup inhibition for N=C(N)c1ccc(-c2nc3cc(C(=N)N)ccc3[nH]2)cc1
Result: 53

Task: // lookup inhibition for N=C(N)c1ccc2[nH]c(-c3cc(Br)cc(Br)c3)cc2c1
Result: 92
